Target: UniProt P08684
Sequence (P08684 whole entry): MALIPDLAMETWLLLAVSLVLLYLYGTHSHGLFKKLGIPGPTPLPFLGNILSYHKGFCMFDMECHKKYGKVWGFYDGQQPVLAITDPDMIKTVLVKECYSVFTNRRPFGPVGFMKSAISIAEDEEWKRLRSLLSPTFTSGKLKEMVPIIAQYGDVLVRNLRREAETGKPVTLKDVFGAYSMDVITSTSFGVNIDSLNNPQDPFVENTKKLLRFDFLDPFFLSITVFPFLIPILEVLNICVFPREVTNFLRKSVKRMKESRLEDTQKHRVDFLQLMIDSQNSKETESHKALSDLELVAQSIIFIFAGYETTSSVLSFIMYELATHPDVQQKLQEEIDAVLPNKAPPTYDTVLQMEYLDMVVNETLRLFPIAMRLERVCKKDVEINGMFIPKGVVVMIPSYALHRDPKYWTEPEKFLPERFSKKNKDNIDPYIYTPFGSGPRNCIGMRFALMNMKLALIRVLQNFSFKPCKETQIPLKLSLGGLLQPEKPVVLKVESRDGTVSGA
Experiment: CYP3A Inhibition Assay (human hepatic microsomes; midazolam 1'-hydroxylase and testosterone 6β-hydroxylase activities)
Conditions: read-out: CYP3A4 IC50 (μM) (testosterone); pooled human hepatic microsomal fraction; testosterone 6β-hydroxylase activity
Protocol: Pooled (n≧15 donors) human hepatic microsomal fraction was obtained from BD-Gentest (Woburn, Mass.) who also supplied hydroxy-terfenadine, 4′-hydroxydiclofenac and NADPH regenerating system. […] Incubations were performed in duplicate in 50 mM potassium phosphate buffer, pH 7.4 with NADPH regenerating system used as described by the manufacturer. […] The final substrate concentrations used were equal to the apparent Km values for the activities determined under the same conditions. […]
Measured IC50 accompanies every entry in the list below.
Numbers only; they are read as µM.

                                   compound  numeric_result
0  CC(=O)N[C@H]1C[C@@H](C(=O)N[C@H](CC[C@H](Cc2ccccc2)NC(=O)OCc2cncs2)Cc2ccccc2)N(C(=O)N(C)Cc2csc(C(C)C)n2)C1 [Compound 36]            0.37
1  CC(C)c1nc(CN(C)C(=O)N2CCC[C@H]2C(=O)N[C@H](CC[C@H](Cc2ccccc2)NC(=O)OCc2cncs2)Cc2ccccc2)cs1 [Compound 39]            0.26
2  CC(C)c1nc(CN(C)C(=O)N2C[C@H](O)C[C@H]2C(=O)N[C@@H](CC[C@@H](Cc2ccccc2)NC(=O)OCc2cncs2)Cc2ccccc2)cs1 [Compound 11]             0.3
3  CC(C)c1nc(CN(C)C(=O)N2CCC[C@@H]2C(=O)N[C@H](CC[C@H](Cc2ccccc2)NC(=O)OCc2cncs2)Cc2ccccc2)cs1 [Compound 42]            0.25
4  CC(C)c1nc(CN(C)C(=O)N2CS(=O)(=O)C[C@H]2C(=O)N[C@H](CC[C@H](Cc2ccccc2)NC(=O)OCc2cncs2)Cc2ccccc2)cs1 [Compound 18]            0.26
5  CC(C)c1nc(CN(C)C(=O)N2C[C@H](O)C[C@H]2C(=O)N[C@H](CC[C@H](Cc2ccccc2)NC(=O)OCc2cncs2)Cc2ccccc2)cs1 [Compound 5]            0.23
6  CC(C)c1nc(CN(C)C(=O)N2C[C@@H](O)C[C@H]2C(=O)N[C@H](CC[C@H](Cc2ccccc2)NC(=O)OCc2cncs2)Cc2ccccc2)cs1 [Compound 8]            0.24
7  CC(C)c1nc(CN(C)C(=O)N2Cc3nc[nH]c3C[C@H]2C(=O)N[C@H](CC[C@H](Cc2ccccc2)NC(=O)OCc2cncs2)Cc2ccccc2)cs1 [Compound 49]            0.37
8  CN[C@H]1C[C@@H](C(=O)N[C@H](CC[C@H](Cc2ccccc2)NC(=O)OCc2cncs2)Cc2ccccc2)N(C(=O)N(C)Cc2csc(C(C)C)n2)C1 [Compound 30]            0.36
9  CC(C)c1nc(CN(C)C(=O)N2C[C@@H](N(C)C)C[C@H]2C(=O)N[C@H](CC[C@H](Cc2ccccc2)NC(=O)OCc2cncs2)Cc2ccccc2)cs1 [Compound 31]            0.33

q: Note IC50 for the compound shown: CC(C)c1nc(CN(C)C(=O)N2CCN(C)C[C@H]2C(=O)N[C@H](CC[C@H](Cc2ccccc2)NC(=O)OCc2cncs2)Cc2ccccc2)cs1 [Compound 25]
a: 0.3

q: Answer with the recorded IC50 for the compound listed here: CC(C)c1nc(CN(C)C(=O)N2C[C@@H](N)C[C@H]2C(=O)N[C@H](CC[C@H](Cc2ccccc2)NC(=O)OCc2cncs2)Cc2ccccc2)cs1 [Compound 29]
a: 0.31

q: Tell me IC50 reported for CC(C)c1nc(CN(C)C(=O)NC2(C(=O)N[C@H](CC[C@H](Cc3ccccc3)NC(=O)OCc3cncs3)Cc3ccccc3)CCN(C)CC2)cs1 [Compound 21]
a: 0.34
